The measurements presented in this section are drawn from ChEMBL document CHEMBL5113553.

- Test system: Escherichia coli
- experiment-notes: Antibacterial activity against Escherichia coli harboring delta tolC mutant assessed as inhibition of bacterial growth incubated for 24 hrs
- Type: functional, organism-based
pIC50: −log10 of the molar value.
measured-property: pIC50

> print(dat)
                           molecular.string  experimental.value
1  CC/C=C/C=C/[C@@]1(C)OC(c2ccsc2C)=C(C(=O)OC)C1=O                4.36
